# target of assay: PI3Kα (Homo sapiens, UniProt P42336)
# Sequence (P42336 whole entry): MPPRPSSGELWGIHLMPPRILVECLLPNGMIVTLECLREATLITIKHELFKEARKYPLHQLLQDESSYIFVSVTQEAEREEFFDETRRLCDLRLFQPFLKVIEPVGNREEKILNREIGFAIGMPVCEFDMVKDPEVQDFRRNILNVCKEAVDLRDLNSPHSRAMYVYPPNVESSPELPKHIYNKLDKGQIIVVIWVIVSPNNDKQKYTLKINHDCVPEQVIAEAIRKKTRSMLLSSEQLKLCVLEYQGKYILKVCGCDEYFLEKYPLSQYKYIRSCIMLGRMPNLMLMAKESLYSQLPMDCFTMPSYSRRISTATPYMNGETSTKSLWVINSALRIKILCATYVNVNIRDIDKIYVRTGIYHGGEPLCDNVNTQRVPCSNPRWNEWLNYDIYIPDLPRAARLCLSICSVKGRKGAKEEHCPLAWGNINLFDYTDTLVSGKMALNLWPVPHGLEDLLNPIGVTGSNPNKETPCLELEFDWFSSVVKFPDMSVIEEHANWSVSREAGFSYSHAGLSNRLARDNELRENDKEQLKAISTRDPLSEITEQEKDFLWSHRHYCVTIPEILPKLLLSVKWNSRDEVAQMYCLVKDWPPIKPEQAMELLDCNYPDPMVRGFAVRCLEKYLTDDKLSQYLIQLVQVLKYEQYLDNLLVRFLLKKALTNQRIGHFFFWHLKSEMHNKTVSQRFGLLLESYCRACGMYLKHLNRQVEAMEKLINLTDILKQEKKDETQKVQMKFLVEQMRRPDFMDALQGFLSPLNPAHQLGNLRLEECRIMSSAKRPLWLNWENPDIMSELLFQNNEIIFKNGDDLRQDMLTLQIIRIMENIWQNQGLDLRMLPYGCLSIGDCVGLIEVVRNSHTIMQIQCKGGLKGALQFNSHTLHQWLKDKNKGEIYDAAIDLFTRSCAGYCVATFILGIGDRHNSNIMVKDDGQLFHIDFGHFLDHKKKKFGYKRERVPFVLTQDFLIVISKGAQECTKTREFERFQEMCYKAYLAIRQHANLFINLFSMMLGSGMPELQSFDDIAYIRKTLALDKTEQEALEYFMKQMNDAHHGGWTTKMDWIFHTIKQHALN
# Sequence (P27986 whole entry partner): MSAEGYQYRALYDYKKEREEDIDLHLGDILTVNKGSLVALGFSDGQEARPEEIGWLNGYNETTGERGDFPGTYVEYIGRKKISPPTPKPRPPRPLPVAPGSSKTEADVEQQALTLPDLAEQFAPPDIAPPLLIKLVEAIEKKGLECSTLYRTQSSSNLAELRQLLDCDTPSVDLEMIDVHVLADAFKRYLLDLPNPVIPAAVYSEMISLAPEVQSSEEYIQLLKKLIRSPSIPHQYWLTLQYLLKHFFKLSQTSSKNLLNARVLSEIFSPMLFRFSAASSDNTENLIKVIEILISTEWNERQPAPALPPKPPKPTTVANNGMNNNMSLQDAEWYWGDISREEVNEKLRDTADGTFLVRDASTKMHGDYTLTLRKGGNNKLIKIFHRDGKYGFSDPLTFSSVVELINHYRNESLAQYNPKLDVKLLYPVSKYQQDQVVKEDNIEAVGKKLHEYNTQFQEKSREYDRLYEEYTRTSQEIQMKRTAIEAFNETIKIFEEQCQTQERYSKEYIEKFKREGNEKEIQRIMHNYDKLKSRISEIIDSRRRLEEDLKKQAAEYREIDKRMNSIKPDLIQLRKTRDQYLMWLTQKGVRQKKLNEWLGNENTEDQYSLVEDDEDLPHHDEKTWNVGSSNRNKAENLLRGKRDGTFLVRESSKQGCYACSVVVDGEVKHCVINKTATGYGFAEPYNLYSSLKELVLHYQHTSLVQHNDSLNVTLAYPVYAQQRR
pIC50: −log10 of the molar value.
Respond with condition met for pIC50 values of 9 and above, condition not met for values below.

INSERT INTO assay_data (mol, class_label) VALUES
  ('COc1ncc(-c2ccc3ncccc3c2)cc1NS(=O)(=O)c1ccc(F)cc1F', 'condition not met'),
  ('COc1ncc(-c2ccc3nccc(/C=C/C(=O)N4CCN(C)CC4)c3c2)cc1NS(=O)(=O)c1ccc(F)cc1F', 'condition met'),
  ('COc1ncc(-c2ccc3nccc(/C=C/C(=O)N4CCN(C(C)C)CC4)c3c2)cc1NS(=O)(=O)c1ccc(F)cc1F', 'condition not met');

====

# target of assay: PI3Kα (Homo sapiens)
# IC50 listing for each entry below
measurement label: IC50 (nM)

INSERT INTO assay_data (compound, target_of_assay, unit_info, measured_value) VALUES
  ('COc1ncc(-c2ccc3nccc(/C=C/C(=O)N4CCCC(O)C4)c3c2)cc1NS(=O)(=O)c1ccc(F)cc1F (stereo not drawn)', 'PI3Kα (Homo sapiens)', 'nM', 0.75),
  ('COc1ncc(-c2ccc3nccc(/C=C/C(=O)NC4CC4)c3c2)cc1NS(=O)(=O)c1ccc(F)cc1F', 'PI3Kα (Homo sapiens)', 'nM', 1.03),
  ('COc1ncc(-c2ccc3nccc(/C=C/C(=O)NC(C)(C)C)c3c2)cc1NS(=O)(=O)c1ccc(F)cc1F', 'PI3Kα (Homo sapiens)', 'nM', 0.63);
